// provenance: the supplement of paper PMC8728848

target: Neu5Ac(a2-3)Gal(b1-4)[Fuc(a1-3)]GlcNAc(b1-3)Gal; assay: glycan array binding signal (z-score within array); higher = stronger binding; conditions: glycan notation: IUPAC condensed, linker removed
This is one part of a sample in which the strongest signals are shown more often than they occur.
Parameter measured: glycan array binding signal (z-score)

>>> measured("SP16665A-bot-344-23-344 (Bacteroides ovatus) (protein) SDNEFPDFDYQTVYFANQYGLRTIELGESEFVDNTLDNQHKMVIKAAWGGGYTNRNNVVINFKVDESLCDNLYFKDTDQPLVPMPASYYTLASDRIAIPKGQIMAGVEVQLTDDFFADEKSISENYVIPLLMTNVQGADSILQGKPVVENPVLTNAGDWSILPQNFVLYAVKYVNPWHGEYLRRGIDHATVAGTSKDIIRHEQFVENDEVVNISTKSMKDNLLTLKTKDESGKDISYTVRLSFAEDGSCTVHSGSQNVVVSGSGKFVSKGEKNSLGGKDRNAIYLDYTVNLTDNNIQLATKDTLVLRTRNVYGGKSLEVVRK")
-0.135
>>> measured("Erv46-EDTA (Saccharomyces cerevisiae), P39727 (protein) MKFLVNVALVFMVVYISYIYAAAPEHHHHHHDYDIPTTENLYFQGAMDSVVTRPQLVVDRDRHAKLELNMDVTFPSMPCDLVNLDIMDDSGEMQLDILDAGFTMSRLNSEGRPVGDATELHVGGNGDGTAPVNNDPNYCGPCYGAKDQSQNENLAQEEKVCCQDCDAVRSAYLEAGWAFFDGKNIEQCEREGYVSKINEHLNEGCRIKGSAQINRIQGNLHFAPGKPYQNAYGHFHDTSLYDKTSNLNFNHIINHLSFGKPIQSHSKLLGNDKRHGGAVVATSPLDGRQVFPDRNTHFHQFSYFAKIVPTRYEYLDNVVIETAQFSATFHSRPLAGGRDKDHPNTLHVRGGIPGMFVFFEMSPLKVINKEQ")
-0.531
